Test system: NCI-H3122
Test: relative viability (nuclei count vs DMSO), 5 days (fraction); higher = more cells survive
Settings: first compound 0.1265 µM
measured endpoint: relative viability
Just the number, please, no unit attached.

- compound: "Clc1ccc(Nc2nnc(Cc3ccncc3)c3ccccc23)cc1 [Vatalanib] + NC(=O)Nc1cc(-c2cccc(F)c2)sc1C(=O)N[C@H]1CCCNC1 [AZD7762] (partner 0.2 µM)"
  measured endpoint: "relative viability"
  recorded measurement: 0.969
- compound: "C[C@@H]1CN(CC(=O)Nc2ccc3c(c2)Cc2cccc(-c4cc(=O)cc(N5CCOCC5)o4)c2S3)C[C@H](C)O1 + CC(C)C[C@H](NC(=O)[C@H](Cc1ccccc1)NC(=O)c1cnccn1)B(O)O [Bortezomib] (partner 0.002 µM)"
  measured endpoint: "relative viability"
  recorded measurement: 0.977
- compound: "Clc1ccc(Nc2nnc(Cc3ccncc3)c3ccccc23)cc1 [Vatalanib] + CC(=O)Nc1cccc(-n2c(=O)n(C3CC3)c(=O)c3c(Nc4ccc(I)cc4F)n(C)c(=O)c(C)c32)c1 [Trametinib] (partner 0.02 µM)"
  measured endpoint: "relative viability"
  recorded measurement: 0.229

Task: Please look up its relative viability: C[C@@H]1CN(CC(=O)Nc2ccc3c(c2)Cc2cccc(-c4cc(=O)cc(N5CCOCC5)o4)c2S3)C[C@H](C)O1 + Cc1nc(Nc2ncc(C(=O)Nc3c(C)cccc3Cl)s2)cc(N2CCN(CCO)CC2)n1 [Dasatinib] (partner 0.075 µM)
Result: 0.838

Task: Please look up its relative viability: COc1cc(N2CCC(C(N)=O)CC2)ccc1Nc1nc(N)c(Cl)c(Nc2ccccc2S(=O)(=O)C(C)C)n1 [HG-5-88-01] + Cc1cc(Nc2cc(N3CCN(C)CC3)nc(Sc3ccc(NC(=O)C4CC4)cc3)n2)n[nH]1 [Tozasertib] (partner 0.1 µM)
Result: 0.146

Task: Please look up its relative viability: Clc1ccc(Nc2nnc(Cc3ccncc3)c3ccccc23)cc1 [Vatalanib] + O=C(CCCCCCC(=O)Nc1ccccc1)NO [Vorinostat] (partner 1 µM)
Result: 0.99

Task: Please look up its relative viability: C[C@@H]1CN(CC(=O)Nc2ccc3c(c2)Cc2cccc(-c4cc(=O)cc(N5CCOCC5)o4)c2S3)C[C@H](C)O1 + CS(=O)(=O)N1CCN(Cc2cc3nc(-c4cccc5[nH]ncc45)nc(N4CCOCC4)c3s2)CC1 [Pictilisib] (partner 1 µM)
Result: 0.532

Task: Please look up its relative viability: C[C@@H]1CN(CC(=O)Nc2ccc3c(c2)Cc2cccc(-c4cc(=O)cc(N5CCOCC5)o4)c2S3)C[C@H](C)O1 + COc1cccc2cc(-c3nc([C@H]4CC[C@H](C(=O)O)CC4)n4ncnc(N)c34)[nH]c12 [OSI-027] (partner 0.5 µM)
Result: 0.901

Task: Please look up its relative viability: Clc1ccc(Nc2nnc(Cc3ccncc3)c3ccccc23)cc1 [Vatalanib] + COc1cc2c(Oc3ccc(NC(=O)C4(C(=O)Nc5ccc(F)cc5)CC4)cc3F)ccnc2cc1OCCCN1CCOCC1 [Foretinib] (partner 0.25 µM)
Result: 0.978

* * *

Tested on: NCI-H727
Assay: relative viability (nuclei count vs DMSO), 5 days (fraction); higher = more cells survive
Details: first compound 0.01 µM
measured endpoint: relative viability

- compound: "CC(C)Oc1cc(Nc2nc(N[C@@H](C)c3ccc(F)cn3)ncc2Cl)n[nH]1 [AZ23] + C[C@]1(O)C[C@@H](c2nc(-c3ccc4ccc(-c5ccccc5)nc4c3)c3c(N)nccn32)C1 [Linsitinib] (partner 1 µM)"
  recorded measurement: 0.354
- compound: "CC(C)Oc1cc(Nc2nc(N[C@@H](C)c3ccc(F)cn3)ncc2Cl)n[nH]1 [AZ23] + CCNC(=O)c1noc(-c2cc(C(C)C)c(O)cc2O)c1-c1ccc(CN2CCOCC2)cc1 [Luminespib] (partner 0.01 µM)"
  recorded measurement: 0.354
- compound: "CC(C)Oc1cc(Nc2nc(N[C@@H](C)c3ccc(F)cn3)ncc2Cl)n[nH]1 [AZ23] + C[C@@H](Oc1cc(-c2cnn(C3CCNCC3)c2)cnc1N)c1c(Cl)ccc(F)c1Cl [Crizotinib] (partner 1 µM)"
  recorded measurement: 1.01

Task: Please look up its relative viability: CC(C)Oc1cc(Nc2nc(N[C@@H](C)c3ccc(F)cn3)ncc2Cl)n[nH]1 [AZ23] + COc1cccc2cc(-c3nc([C@H]4CC[C@H](C(=O)O)CC4)n4ncnc(N)c34)[nH]c12 [OSI-027] (partner 0.5 µM)
Result: 0.496
